Test: E. coli DRC41 culture turbidity changes, primary screen, E. coli filamentation inducer project, strain DRC41, OD650, 48 h (AID 1152);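 note: E. coli MC1000 strain DRC41 lacking acrAB efflux pump and sulA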
Settings: E. coli DRC41 (acrAB sulA), higher = more signal, called active from +8 up or from −8 down
We use -0.4 as the dividing line for z-score: on or above the line is yes (1), below is no (0).

Consider the worked cases shown below.
C=CCNC(=O)[C@@H]1[C@H]2C(=O)O[C@H](c3ccccc3)[C@H](c3ccccc3)N2[C@H](c2ccc(OCCO)cc2)[C@@]12C(=O)Nc1ccc(C#CCNC(N)=O)cc12; no (0)
C=CCN1C(=O)[C@]2(O[C@H](CCO)[C@@H]([Si](C)(C)c3ccc(OC)cc3)[C@@H]2C)c2cc(N3C(=O)c4ccccc4Oc4ccccc43)ccc21; no (0)

Let us examine a further case.
Determine whether measured z-score meets or exceeds -0.4 for CN1C(=O)C2CC=C(C3=CCO[C@@H]3[C@H]3CCCN3S(=O)(=O)c3ccccc3[N+](=O)[O-])CC2C1=O (some centres undefined)
no (0)

###

Tested on: Wnt5a (protein binding on small-molecule microarray)
Assay: Wnt5a binders on small-molecule microarray, primary screen, biophysical, 635/667 nm fluorescence (AID 1142);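 note: fluorescence read at 667 nm with signal to noise per printed feature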
Conditions: 635 nm fluorescence, higher = more signal
Tick True if composite z-score is 0.5 or greater. Tick False if composite z-score is less than 0.5.

# example entries with known answers
Cc1ccc(S[C@]2(C(=O)NC3CC3)CC(=O)N(C3Cc4ccccc4C3)[C@@H]2c2ccc(CO)cc2I)cc1; False
[N-]=[N+]=Nc1ccccc1C[C@]1(C(=O)N2CCCCC2)N=C(c2ccc(OCCCO)cc2)O[C@H]1c1ccccc1; True
COC(=O)[C@@]1(Cc2ccc(F)cc2)[C@@H]2C(=CC(=O)[C@H]2CC(=O)C(=O)N2CCCC2)CN1C(=O)c1ccccc1; True

Reported composite z-score reaches at least 0.5 for C[C@]12C(=O)N(CCO)[C@@H]3C(=O)N(c4ccc(Cl)cc4)CC=CC31O[C@@H]1/C=C\CCCOC(=O)C12 (stereo not given in full) ?
False

Does the molecule CCCCC(=C=CC[C@@H](O)c1ccc(OCCO)cc1)CCO have recorded composite z-score that is 0.5 or more?
False

Check this molecule for composite z-score at or above 0.5: COc1cccc(C)c1NC(=O)O[C@H]1[C@H](OC(=O)Nc2ccccc2-c2ccccc2)[C@@H](OC(=O)Nc2ccccc2-c2ccccc2)[C@@H](OC)O[C@@H]1CO
True

Determine whether this molecule has composite z-score no lower than 0.5: CC(C)[Si](C#Cc1ccccc1)(O[C@H](c1ccccc1)c1cn(Cc2ccccc2)nn1)C(C)C
False

Determine whether this molecule has composite z-score no lower than 0.5: COC(=O)[C@@]1(Cc2ccc(F)cc2)[C@H]2c3cc(C(=O)N(C)C)n(CCF)c3C[C@H]2CN1C(=O)c1ccccc1
False

State whether the measured composite z-score reaches 0.5, counting equality as reaching it, for CC[C@@H](O[Si](C#C[Si](C(C)C)(C(C)C)C(C)C)(C(C)C)C(C)C)c1cn([C@H](C)c2ccccc2)nn1
False

Textbook exercise: given the entry COCCOC(=O)N1C(=O)[C@@]2(c3cc(C#CCC(C(=O)OC)C(=O)OC)ccc31)[C@H](c1ccc(O)cc1)N1[C@H](c3ccccc3)[C@H](c3ccccc3)OC(=O)[C@H]1[C@@H]2C(=O)N1CCc2cc(OC)c(OC)cc2C1 , state whether its composite z-score is greater than or equal to 0.5.
False

Record CN1C(=O)C2C=CC(C(O)c3cccs3)N(N(c3ccccc3)c3ccccc3)C2C1=O (stereo not given) ; criterion: composite z-score no lower than 0.5. Met?
False

Please tell me: is the molecule COc1ccc(C(O)C2C=CC3C(=O)N(C)C(=O)C3N2Nc2ccccc2)cc1 (stereo not given) at or over 0.5 in terms of composite z-score?
False

Given COc1ccc([Si](C)(C)[C@@H]2[C@@H](CC(=O)N3CCC[C@H]3CO)O[C@]3(C(=O)N(Cc4cccc(N5C(=O)c6cccc7cccc5c67)c4)c4ccccc43)[C@H]2C)cc1 , state whether its composite z-score is at least 0.5.
True

composite z-score >= 0.5 for COCCOC(=O)N1C(=O)[C@@]2(c3cc(C#CCNC(N)=O)ccc31)[C@H](c1ccc(O)cc1)N1[C@H](c3ccccc3)[C@H](c3ccccc3)OC(=O)[C@H]1[C@@H]2C(=O)N1CCc2cc(OC)c(OC)cc2C1 ?
False
